# System: MDA-MB-468 breast
# experimental_protocol: NCI-60 one-dose screen, 48 h (100 = growth as untreated, 0 = no growth, -100 = all killed)
# test_conditions: 10 µM
# Method: Growth inhibition of the MDA-MB-468 human Breast tumor cell line is measured as a screen for anti-cancer activity. Cells are grown in 96 well plates and exposed to the test compound for 48 hours. Compounds are tested at a single concentration, which is 10^-5 M for most compounds. The reported endpoint is percent growth (GI% or GIPRCNT), where numbers from 0 - 100% represent growth inhibition, and numbers from -100% - 0 represent cell death. […]
This is part of a sample that, as a whole, favours compounds with a hit. Of some 83,000 tested, about 20% had one in any assay.
Rule: yes for growth not less than 10%, no for anything less.

{"compound": "N#Cc1ccc(-c2nn(-c3ccc(C(=O)O)cc3)cc2CNc2ccc(Oc3ccccc3)cc2)cc1", "answer_label": "yes"}
{"compound": "O=c1[nH]c2ccccc2cc1CSc1ccc(Nc2nccc(-c3ccc4ccccc4c3)n2)cc1", "answer_label": "no"}
{"compound": "O=C1NC(=NC23CC4CC(CC(C4)C2)C3)N/C1=C\\c1ccc2ncoc2c1", "answer_label": "no"}
{"compound": "O=C(CS(=O)(=O)c1oc(-c2ccc(Cl)cc2)nc1S(=O)(=O)c1ccc(Cl)cc1)N1CCOCC1", "answer_label": "no"}
{"compound": "CC1(c2ccccc2)NC(=O)N(CC(=O)Nc2ccc(C(=O)/C=C/c3ccc(Cl)cc3)cc2)C1=O (stereo not given)", "answer_label": "no"}
{"compound": "CC(=O)Nc1ccc(-c2cn(-c3cccc(C(=O)Nc4cc(CN5CCOCC5)cc(C(F)(F)F)c4)c3)nn2)cn1", "answer_label": "no"}
{"compound": "O=S(=O)(c1ccc(Cl)cc1)c1nc(-c2ccccc2)oc1S(=O)(=O)c1ccc(Cl)cc1", "answer_label": "yes"}
{"compound": "O=C1N/C(=N\\c2nccs2)S/C1=C\\c1cccs1", "answer_label": "yes"}
{"compound": "CN1CCc2c(sc3ncnc(N/N=C/c4cn(-c5ccccc5)nc4-c4ccc(Br)cc4)c23)C1", "answer_label": "yes"}
{"compound": "Nc1nnc(-c2c[nH]c3ccc(F)cc23)c(-c2c[nH]c3ncccc23)n1", "answer_label": "yes"}
